Target System: GIPC2, Q8TF65
Sequence (Q8TF65 112-203): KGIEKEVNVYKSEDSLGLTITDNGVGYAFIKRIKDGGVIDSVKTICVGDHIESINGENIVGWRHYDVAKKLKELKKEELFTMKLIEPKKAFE
Experiment: holdup assay
Design: key: below the threshold = too weak to quantify, mostly under pKd 3.1 to 4
Reported Conditions: plain residues with an end cap or a label only (N-terminal biotin on a linker: ado-ado)
Value Type: pKd

Solved entries:
binder="NSTHNLKDYV [CLDN20, P56880]" meas_value="below the threshold"
binder="PSDSVGKDVF [EGLN1, Q9GZT9]" meas_value="below the threshold"
binder="KAEEKPPSKV [SCN4B, Q8IWT1]" meas_value="below the threshold"
binder="PEKVSNTTVV [IGSF5, Q9NSI5]" meas_value="below the threshold"
binder="QKASRNESTF [POLR1D, P0DPB6]" meas_value="below the threshold"

Attention now shifts to the item below.
Could you please provide reported pKd for VCMGDHWFDV [PRKN, O60260] ? Thanks!
3.83
